Values were extracted from PubChem BioAssay (Tox21).

# assay system: Cytochrome P450 3A4 (Homo sapiens) (UniProt P08684)
# Sequence (P08684 whole entry, looked up): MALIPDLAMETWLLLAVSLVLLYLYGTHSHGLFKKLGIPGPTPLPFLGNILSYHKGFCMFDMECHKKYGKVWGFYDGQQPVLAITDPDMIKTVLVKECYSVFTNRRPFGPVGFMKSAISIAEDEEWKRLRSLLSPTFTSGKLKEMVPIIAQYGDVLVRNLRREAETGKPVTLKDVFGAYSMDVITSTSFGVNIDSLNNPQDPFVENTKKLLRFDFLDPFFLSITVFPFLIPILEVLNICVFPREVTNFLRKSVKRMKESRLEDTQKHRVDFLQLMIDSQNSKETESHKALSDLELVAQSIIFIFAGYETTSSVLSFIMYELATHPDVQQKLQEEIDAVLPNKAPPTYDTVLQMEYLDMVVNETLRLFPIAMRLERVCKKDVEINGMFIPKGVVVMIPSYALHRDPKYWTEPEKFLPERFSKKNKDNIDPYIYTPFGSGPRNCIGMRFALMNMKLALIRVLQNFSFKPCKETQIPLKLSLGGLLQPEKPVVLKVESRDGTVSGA
# measurement protocol: Cytochrome P450 Family 3 Subfamily A Member 4 (CYP3A4) small molecule antagonists: luciferase reporter qHTS assay (AID 1671201); note: nearly all actives have a fitted effect of over 50% in size; note: potency is the fitted concentration of half-maximal effect
# condition: P450-Glo CYP3A4 enzyme, luciferin luminescence, 1 h; series mostly up to 115 µM
Results filed as inconclusive are left out. Active and inactive are the calls of the source. Calls come from the whole dose curve; as a rule, active = well fitted inhibition curve with a large enough effect in the repeat runs; inconclusive = weak or mixed curves; inactive = no such curve, though single readings can be large or run the other way.
observation type: Potency

Below: 5 compounds and their reported Potency.
{"columns": ["compound", "observation type", "recorded measurement"],
 "data": [
  ["CC(C)(C)c1n[nH]c(=O)n(N)c1=O", "Potency", "inactive"],
  ["CC(C)C(=O)OCc1ccccc1", "Potency", "inactive"],
  ["COc1cccc(OC)c1O", "Potency", "inactive"],
  ["CC1CNCC(C)O1 (configuration not stated)", "Potency", "inactive"],
  ["CCCCCCOc1cc(C)c(O)c(C)c1C", "Potency", "28.6 µM (active)"]
]}

Give one value of Potency per listed compound.
1. CCN(CC)CCNc1ccc(CO)c2sc3ccccc3c(=O)c12
2. CC(C)CCOCCC(C)C
3. Oc1ccc(-c2ccccc2)c(Cl)c1
4. CC(C)OC(=O)c1cc(C(=O)OC(C)C)cc([N+](=O)[O-])c1
5. N#CSCSc1nc2ccccc2s1
6. CC1=C(/C=C/C(C)=C/C=C/C(C)=C\C=O)C(C)(C)CCC1
7. CO[C@H]1C=CO[C@@]2(C)Oc3c(C)c(O)c4c(O)c(cc(O)c4c3C2=O)NC(=O)/C(C)=C\C=C/[C@H](C)[C@H](O)[C@@H](C)[C@@H](O)[C@@H](C)[C@H](OC(C)=O)[C@@H]1C

["inactive", "inactive", "inactive", "inactive", "inactive", "30 µM (active)", "1.27 µM (active)"]
